The origin of these recorded values is patent US6403626B1.

MEASURED TARGET: α1C Human Adrenergic Receptor (Homo sapiens)
Construct: expressed in transfected cells; host or cells: LM(tk-) cells
Sequence (P35348 whole entry): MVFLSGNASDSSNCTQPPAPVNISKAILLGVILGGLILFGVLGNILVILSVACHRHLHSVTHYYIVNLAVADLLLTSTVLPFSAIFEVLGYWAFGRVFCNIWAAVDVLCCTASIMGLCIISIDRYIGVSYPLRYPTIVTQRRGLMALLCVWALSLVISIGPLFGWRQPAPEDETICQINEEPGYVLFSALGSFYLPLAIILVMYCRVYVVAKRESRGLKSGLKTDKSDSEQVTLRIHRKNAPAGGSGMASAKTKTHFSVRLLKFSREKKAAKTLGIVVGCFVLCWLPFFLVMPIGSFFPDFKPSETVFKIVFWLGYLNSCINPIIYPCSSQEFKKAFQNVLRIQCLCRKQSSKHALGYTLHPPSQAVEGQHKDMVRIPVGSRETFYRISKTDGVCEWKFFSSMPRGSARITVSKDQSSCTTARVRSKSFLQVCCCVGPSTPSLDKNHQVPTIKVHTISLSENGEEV
ASSAY METHOD TEXT: Equilibrium competition binding, [3H] prazosin, membranes of transfected LM(tk-) cells
PROTOCOL CONDITIONS: cloned human receptor; [3H] prazosin; read-out: pKi Alpha-1 C (converted)
We label by threshold. Values of Ki strictly beneath 2000 nM are True. Values of 2000 nM and up are False.

* CC(C)(C)c1nc2ccc(NC3=NCCN3)c(Br)c2[nH]1 [Example 45] | False
* Brc1c(NC2=NCCN2)ccc2c1ncn2C1CCCC1 [Example 26] | False
* FC(F)(F)c1nc2ccc(NC3=NCCN3)c(Br)c2[nH]1 [Example 46] | False
* CC(C)c1nc2ccc(NC3=NCCN3)c(Br)c2[nH]1 [Example 44] | False
* Cn1cnc2c(Br)c(NC3=NCCN3)ccc21 [Example 10] | True
* Brc1c(NC2=NCCN2)ccc2nc(C(c3ccccc3)c3ccccc3)[nH]c12 [Example 48] | True
* CC(C)n1cnc2ccc(NC3=NCCN3)cc21 [Example 20] | False
* Clc1cc(NC2=NCCN2)cc2[nH]cnc12 [Example 53] | True
* Brc1c(NC2=NCCN2)ccc2c1ncn2Cc1ccccc1 [Example 33] | True
* Cc1c(N=C2NCCN2)ccc2[nH]cnc12 [Example 4] | True
* c1nc2ccc(NC3=NCCN3)cc2[nH]1 [Example 1, 5-(2-Imidazolin-2-ylamino)Benzimidazole] | False
* Clc1cc(NC2=NCCN2)c(Br)c2[nH]cnc12 [Example 60] | True
* Cn1cnc2ccc(NC3=NCCN3)cc21 [Example 11] | False
* CC(C)n1cnc2cc(NC3=NCCN3)ccc21 [Example 17] | False
* c1cc2ncn(C3CCCC3)c2cc1NC1=NCCN1 [Example 27] | False
* CC(C)Cn1cnc2c(Br)c(NC3=NCCN3)ccc21 [Example 23] | True
